Provide the reported self-cleavage of each item.
B1: HDV Ribozyme (parent)
chain: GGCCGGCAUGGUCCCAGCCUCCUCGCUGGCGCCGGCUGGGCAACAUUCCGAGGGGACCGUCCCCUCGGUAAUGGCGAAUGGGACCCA

Variants of: B1
Assay: self-cleavage, relative activity (ratio to wild type); higher = more cleavage; co-transcriptional
Lab note: write the figure by itself, no unit.

IN: // returns reported self-cleavage for input GGCCGGCAUGGUCCCAGCCACCUCGCUGGCGCCGGCUGGGCAACAUUCCGUGGGGACCGUCCCCUCGGUAAUGGCGAAUGGGACCCA [U20A A51U]
OUT: 0.104

IN: Need self-cleavage of GGGCGGCAUGGUCCCAGCCUCCGCGCUGGCGCCGGCUGGGCAACAUUCCGAGGGGACCGUCCCCUCGGUAAUGGCGAAUGGGACCCA [C3G U23G] , thanks.
OUT: 0.0791

IN: Report self-cleavage for GGCCGUCAUGGUCCCAGCCUCCUCGCUGGCGCCGGCUGGGCAACAUUCCGAGGCGACCGUCCCCUCGGUAAUGGCGAAUGGGACCCA [G6U G54C] please.
OUT: 0.383

IN: Could you tell me which self-cleavage is on file for GGCCGGCAUGGUCCCAGCCUCCUCGCUGGCGCCGGCUGGGCAACAUUCCGAGGUGACCGUCCCCUCGGUAGUGGCGAAUGGGACCCA [G54U A71G] ?
OUT: 0.897

IN: May I ask what self-cleavage has been recorded for GGCCGGCAUGGUCCCAGCCUCCUCGCUGGAGCCGGCUGGGCAACAUUCCGAGGGGACCGUCCCCUCGGUAAUGACGAAUGGGACCCA [C30A G74A] ?
OUT: 0.123

IN: I have this variant here, GGACGGCAUGCUCCCAGCCUCCUCGCUGGCGCCGGCUGGGCAACAUUCCGAGGGGACCGUCCCCUCGGUAAUGGCGAAUGGGACCCA [C3A G11C] , and I need its recorded self-cleavage.
OUT: 0.0963

IN: Value lookup for self-cleavage; key = GGCCGGCAUGGUCCCAGCUUCCUCGCUGGCGCCUGCUGGGCAACAUUCCGAGGGGACCGUCCCCUCGGUAAUGGCGAAUGGGACCCA [C19U G34U]
OUT: 0.0755

IN: # input variant: GGCCGGCAUGGUCCCAGCCUCCCCGCUGGCGCCGGCUGGGCAACAUUCCGAGGGGACCGUCCCCUCGGUAUUGGCGAAUGGGACCCA [U23C A71U] ; wanted: its self-cleavage
OUT: 0.808

IN: Need self-cleavage of GGCCGGCAUGGUCCCAGCCUCCUCGCUGGCGCCGGCUGGGCAACAUUCCGAGGGGAUCGUCCCCUCGGUAAUGGCGAAUGGGAUCCA [C57U C84U] , thanks.
OUT: 0.856

IN: So what does the record say about self-cleavage for GGCUGGCAUGGUCCCAGGCUCCUCGCUGGCGCCGGCUGGGCAACAUUCCGAGGGGACCGUCCCCUCGGUAAUGGCGAAUGGGACCCA [C4U C18G] ?
OUT: 0.095

IN: # lookup: self-cleavage of GGCCAGCAUGGUCCCAGCCUCCUCGCUGGCGGCGGCUGGGCAACAUUCCGAGGGGACCGUCCCCUCGGUAAUGGCGAAUGGGACCCA [G5A C32G]
OUT: 0.248

IN: Field request: self-cleavage | item: GGCCGGCAUGGUCCCAGCCUCCUCGCUGGCGCCGGCUGGGCAACAUUCCGAGGGGACCGUCCCCUGGGUAAUGGCGAGUGGGACCCA [C66G A78G]
OUT: 0.875

IN: Look at this variant and give its reported self-cleavage. GGCCGGCCUGGUCCCAGCCUCCUCGCUGGCGCCGGCUGGGCAACAUUCCGAGGGGACCGUCCCCUCGGUAAUGGAGAAUGGGACCCA [A8C C75A]
OUT: 0.128

IN: Consider the variant GGCCGGCAUGGUCCCAGCCUCCUCGCUGGCGCCGGCUGGGCAACAUUCCGAGGGGACCGUCGCCUCGGUAACGGCGAAUGGGACCCA [C62G U72C] and give its measured self-cleavage.
OUT: 0.525

IN: What measured self-cleavage goes with GGCCGGCAUGGUCCCAGCCUCCUUGCUGGCGCCGGCUGGGCAACAUUCCGAGGGGACCGUCCCCUCGGUAAUAGCGAAUGGGACCCA [C24U G73A] ?
OUT: 0.188

IN: For the variant shown here, GGCCGGCAUGGUCGCAGCCUCCUCGCAGGCGCCGGCUGGGCAACAUUCCGAGGGGACCGUCCCCUCGGUAAUGGCGAAUGGGACCCA [C14G U27A] , give the reported self-cleavage.
OUT: 0.7

IN: Sample GGCCGGCAUGGUCCCUGCCUCCUCGCUGGCGCCGGAUGGGCAACAUUCCGAGGGGACCGUCCCCUCGGUAAUGGCGAAUGGGACCCA [A16U C36A] — what was its self-cleavage?
OUT: 0.0475

IN: Entry under review: GGCCGGCAUGGUCCCAGGCUCCUCGCUGGCGCCGGCUGGGCAAAAUUCCGAGGGGACCGUCCCCUCGGUAAUGGCGAAUGGGACCCA [C18G C44A] . Reported self-cleavage?
OUT: 0

IN: So what does the record say about self-cleavage for UGCCGGCAUGGUCCCAGCCUCCUCGCUGGCGCCGCCUGGGCAACAUUCCGAGGGGACCGUCCCCUCGGUAAUGGCGAAUGGGACCCA [G1U G35C] ?
OUT: 0.191

IN: Query: self-cleavage; subject: GGCCGGCAUGGUCCCAGCCUCCUCGCUGGCGCCGGCUGCGCAACAUUCCGAGGGGACCGUCCCGUCGGUAAUGGCGAAUGGGACCCA [G39C C64G]
OUT: 0.295

IN: Field request: self-cleavage | item: GGCCGGCAUGGUCCCAGCCUCCUCGCUUGCGCCGGCUGGGCAACAUUCCCAGGGGACCGUCCCCUCGGUAAUGGCGAAUGGGACCCA [G28U G50C]
OUT: 0.212

IN: Entry GGCCGGCAUGGUCACAGCCUCCUCGCUGGCGCCGGGUGGGCAACAUUCCGAGGGGACCGUCCCCUCGGUAAUGGCGAAUGGGACCCA [C14A C36G] : reported self-cleavage = ?
OUT: 0.107

IN: Fill blank: measured self-cleavage of the variant GGCCGGCAUGGUCCCAGCCUCCUCGCUGGCGCCGGCUGGGCAACAUUCCGAGGGGACCGUCCCCUCGGUACUGCCGAAUGGGACCCA [A71C G74C] is ____.
OUT: 0.128

IN: Endpoint output: self-cleavage of GGCCGGGAGGGUCCCAGCCUCCUCGCUGGCGCCGGCUGGGCAACAUUCCGAGGGGACCGUCCCCUCGGUAAUGGCGAAUGGGACCCA [C7G U9G] . Value?
OUT: 0.831

IN: Entry under review: GGCCGGCAUGGUCCCAGCCUCCUCGCUGGGGCCGGCUCGGCAACAUUCCGAGGGGACCGUCCCCUCGGUAAUGGCGAAUGGGACCCA [C30G G38C] . Reported self-cleavage?
OUT: 0.0594

IN: // lookup self-cleavage for GGCCGGCAUGGUCCCAGCCUCCUAGCUGGCGCCGGCUGGGCAACAUUCCGAGGGGACCGUCCCCUCGGUAAUGGCGAAUGGCACCCA [C24A G82C]
OUT: 0.249

IN: Entry under review: GGCCGGCAUGGUCUCAGCCUCCUCGCUGGCGCCGGCUGGGUAACAUUCCGAGGGGACCGUCCCCUCGGUAAUGGCGAAUGGGACCCA [C14U C41U] . Reported self-cleavage?
OUT: 1.11

IN: Consider the variant shown here: GGCCGGCAUGGUCCCAGCCUCCUCGCCGGCGCCGGCUGGGCAACAUUCCGAGGGGACCGUCCCCUCGGUAAUGGCGAGUGGGACCCA [U27C A78G] What is its recorded self-cleavage?
OUT: 0.227

IN: So what's the measured self-cleavage for this one? GGCCGGCAUGGUCCCAGGCUCCUCGCUGGCGCCGGCUGGGCAACAAUCCGAGGGGACCGUCCCCUCGGUAAUGGCGAAUGGGACCCA [C18G U46A]
OUT: 0.145

IN: Query (variant): GGCCGGCAUGGUCCCAGCCUCCUCGCUGGCGCCGGCUGGUCAACAUUCCGAGGGGACCGUCCCCUCGGUAAUAGCGAAUGGGACCCA [G40U G73A] ; field requested: self-cleavage
OUT: 0.463

IN: Can you share its self-cleavage? I mean this variant: GGCCGGCAUGGUCCCAGCCUCCGCGCUGGCGCCGGCUGGGCAACAUUCCGAGGGGACCAUCCCCUCGGUAAUGGCGAAUGGGACCCA [U23G G59A]
OUT: 0.708

IN: # query: self-cleavage of entry GGCCGGCACGGUCCCAGCCUUCUCGCUGGCGCCGGCUGGGCAACAUUCCGAGGGGACCGUCCCCUCGGUAAUGGCGAAUGGGACCCA [U9C C21U]
OUT: 0.214

IN: GET /values?readout=self-cleavage&item= GGCCGGCAUGGUCCCAGCCUCCUCGCUGGCGCCGGCUGGGCAACAAUCCGAGGGGACCGUCCCCUCGGUAAAGGCGAAUGGGACCCA [U46A U72A]
OUT: 0.615

IN: Consider the variant GGCCGGCAUGGUCCAAGCCGCCUCGCUGGCGCCGGCUGGGCAACAUUCCGAGGGGACCGUCCCCUCGGUAAUGGCGAAUGGGACCCA [C15A U20G] and give its measured self-cleavage.
OUT: 0.19

IN: Need self-cleavage of GGCCGGCAUGGUCCCAGCCUCCUCGCUGGCGCCGGCUGGGCAACAUUCCGUGGGGACCGUCCCCUCGGUAUUGGCGAAUGGGACCCA [A51U A71U] , thanks.
OUT: 1.01

IN: Tell me the measured self-cleavage of GGCCUGCAUGGUCCCAGCCUCCUCGCUGGCGCCGGCUGGGCAACAUUCCGAGGGGACCGUCCCCUCGGUAAUGGCGAACGGGACCCA [G5U U79C] , please.
OUT: 0.123
